# System Under Test: T1, PADI4_N373A (human, UniProt Q9UM07 1-663, N373A)
# T1 construct: human PADI4, residues 1-663, single substitution; source: E. coli BL21-DE3, purified (Ni-NTA, S200 SEC), as told for the wild type
# T1 sequence (Q9UM07 whole entry N373A, the tested form may be a part): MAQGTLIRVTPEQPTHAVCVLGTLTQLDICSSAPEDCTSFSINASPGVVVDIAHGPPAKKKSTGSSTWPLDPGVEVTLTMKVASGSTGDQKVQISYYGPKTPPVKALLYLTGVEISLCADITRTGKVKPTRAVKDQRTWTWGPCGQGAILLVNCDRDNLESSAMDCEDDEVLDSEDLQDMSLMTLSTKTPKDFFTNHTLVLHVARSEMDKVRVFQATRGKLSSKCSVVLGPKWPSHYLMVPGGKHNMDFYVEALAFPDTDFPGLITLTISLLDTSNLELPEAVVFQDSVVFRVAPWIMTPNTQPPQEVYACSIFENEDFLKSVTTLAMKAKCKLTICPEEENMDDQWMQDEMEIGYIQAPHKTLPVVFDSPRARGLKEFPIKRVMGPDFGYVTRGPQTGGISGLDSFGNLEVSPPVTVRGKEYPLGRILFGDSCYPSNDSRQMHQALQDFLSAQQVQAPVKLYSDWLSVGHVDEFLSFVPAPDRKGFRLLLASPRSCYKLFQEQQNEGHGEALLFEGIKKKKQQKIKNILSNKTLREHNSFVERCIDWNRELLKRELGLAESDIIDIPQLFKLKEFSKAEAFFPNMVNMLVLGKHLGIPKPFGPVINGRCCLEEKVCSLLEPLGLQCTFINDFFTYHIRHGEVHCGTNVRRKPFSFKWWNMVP
# Assay Explanation: SPR; single cycle kinetics; biotinylated PADI4 (wild type or single-residue variant) captured on a Biotin CAPture chip, peptide or peptide analogue as analyte; 50 mM HEPES pH 7.5, 150 mM NaCl, 2 mM DTT, 0.05% Tween-20, 0.1% DMSO; 25 °C; CaCl2 concentration not told for these runs
# Experimental Context: both partners purified
Bridge positions count the residues as written; N and C are the ends. Square brackets hold non-standard residues; d marks the D form.
Measured Metric: Kd (nM)
Please state the figure in nM; there is no need to write the unit.

Would you mind telling me what Kd value was observed for {CH2CO}-[dY]RDHHYRHPKYCG-NH2 (thioether N-12, cyclic peptide from RaPID selection 1 (10 mM CaCl2); source: synthetic peptide (Fmoc solid-phase synthesis, HPLC purified)) [PADI4_3] ?
83
